- assayOverview: qHTS assay to identify small molecule antagonists of the estrogen receptor alpha (ER-alpha) signaling pathway using the BG1 cell line (AID 743080);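 note: BG1 cells stimulated with 17beta-estradiol alongside compound; nearly all actives have a fitted effect of over 25% in size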
- experimentalConditions: BG1Luc4E2 ERE-luciferase antagonist mode, luminescence; series mostly up to 70.3 µM
Inconclusive results are not listed. The source made the active and inactive calls. Calls come from the whole dose curve.
Possible outcomes: T (active), F (inactive)

[[record]]
compound = "C[C@]12CC[C@H](OS(=O)(=O)O)CC1=CC[C@@H]1[C@@H]2CC[C@]2(C)C(=O)CC[C@@H]12"
discretelabel = "F"

[[record]]
compound = "C[C@]12CC[C@@H]3c4ccc(OC(=O)N(CCCl)CCCl)cc4CC[C@H]3[C@@H]1CC[C@@H]2OP(=O)(O)O"
discretelabel = "F"

[[record]]
compound = "CCC(N)Cc1c[nH]c2ccccc12 (stereo not drawn)"
discretelabel = "F"

[[record]]
compound = "NC1=NC(=O)N2CC12 (stereo not drawn)"
discretelabel = "F"

[[record]]
compound = "C#CC(C)(O)CC (stereo not drawn)"
discretelabel = "F"

[[record]]
compound = "CCCCCc1cc(O)c2c(c1)OC(C)(C)c1ccc(C)cc1-2"
discretelabel = "T"

[[record]]
compound = "C#CCN1CC(=O)N(COC(=O)C2C(C=C(C)C)C2(C)C)C1=O (stereo not drawn)"
discretelabel = "F"

[[record]]
compound = "C[C@@H]([C@H](O)c1ccccc1)N(C)C"
discretelabel = "F"


====

- assayOverview: qHTS assay to identify aromatase inhibitors - cell viability counter screen (AID 743084);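 note: cells stimulated with testosterone during compound exposure; nearly all actives have a fitted effect of over 55% in size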
- experimentalConditions: MCF-7 aro ERE viability, CellTiter-Fluor, 24 h; series mostly up to 70.3 µM
Inconclusive results are not listed. Activity calls are given as the source filed them. Calls follow the shape of the dose curve; as a rule, active = well fitted cell-killing curve with a large enough effect in the repeat runs; inconclusive = weak or mixed curves, or effect the other way; inactive = no such curve, though single readings can be large or run the other way.
Possible outcomes: active, inactive

[[record]]
compound = "CCCN1CCC[C@H](c2cccc(O)c2)C1"
discretelabel = "inactive"

[[record]]
compound = "CCOC(=O)C1(c2ccccc2)CCCN(C)CC1 (stereo unspecified)"
discretelabel = "inactive"

[[record]]
compound = "CC(C)=CCN1CC[C@]2(C)c3cc(O)ccc3C[C@H]1[C@H]2C"
discretelabel = "inactive"

[[record]]
compound = "CO/C=C(/C(=O)OC)c1ccccc1Oc1cc(Oc2ccccc2C#N)ncn1"
discretelabel = "active"

[[record]]
compound = "S=C(S)N1CCNCC1"
discretelabel = "inactive"

[[record]]
compound = "c1ccc(C2(c3ccccc3)CC2C2=NCCN2)cc1 (stereo unspecified)"
discretelabel = "inactive"

[[record]]
compound = "C=C[C@H]1CN2CC[C@H]1C[C@H]2[C@H](OC(=O)OCC)c1ccnc2ccc(OC)cc12"
discretelabel = "inactive"

[[record]]
compound = "CCN1C[C@]2(COC)[C@H](O)C[C@H](OC)[C@@]34[C@@H]5C[C@@]6(O)[C@H](OC(=O)c7ccccc7)[C@@H]5[C@@](OC(C)=O)([C@@H]([C@H](OC)[C@H]23)[C@@H]14)[C@@H](O)[C@@H]6OC"
discretelabel = "inactive"

[[record]]
compound = "CC(=O)OO"
discretelabel = "inactive"

[[record]]
compound = "C#CC(C)(O)CC (stereo unspecified)"
discretelabel = "inactive"

[[record]]
compound = "CN[C@@]1(c2ccccc2Cl)CCCCC1=O"
discretelabel = "inactive"

[[record]]
compound = "CNC(C)CC1CCCCC1 (stereo unspecified)"
discretelabel = "inactive"

[[record]]
compound = "CC(N)Cc1ccc(O)cc1 (stereo unspecified)"
discretelabel = "inactive"

[[record]]
compound = "Cc1ccccc1-n1c(CF)nc2ccc(N)cc2c1=O"
discretelabel = "inactive"

[[record]]
compound = "CN(C)CCCCCCN(C)C (tested in a mixture with another compound)"
discretelabel = "inactive"

[[record]]
compound = "COc1cc([C@@H]2c3cc4c(cc3[C@@H](O)[C@H]3COC(=O)[C@H]23)OCO4)cc(OC)c1O"
discretelabel = "inactive"


Origin of the recorded values: PubChem BioAssay (Tox21)
